# ASSAY TARGET: UniProt P11166
# Sequence (P11166 whole entry): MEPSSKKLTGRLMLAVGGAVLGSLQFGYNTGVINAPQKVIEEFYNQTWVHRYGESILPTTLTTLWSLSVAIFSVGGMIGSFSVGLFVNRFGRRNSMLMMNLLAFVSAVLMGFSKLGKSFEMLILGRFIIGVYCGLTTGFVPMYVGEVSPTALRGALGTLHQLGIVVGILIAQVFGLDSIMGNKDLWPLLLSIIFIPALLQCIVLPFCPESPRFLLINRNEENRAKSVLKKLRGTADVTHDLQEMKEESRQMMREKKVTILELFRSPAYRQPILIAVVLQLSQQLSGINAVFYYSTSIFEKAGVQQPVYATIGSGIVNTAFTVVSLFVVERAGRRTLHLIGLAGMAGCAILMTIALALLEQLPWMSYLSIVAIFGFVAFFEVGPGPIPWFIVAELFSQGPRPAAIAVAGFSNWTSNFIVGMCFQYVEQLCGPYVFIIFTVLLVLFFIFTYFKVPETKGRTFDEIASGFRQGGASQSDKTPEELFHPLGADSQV
# PROTOCOL DESCRIPTION: GLUT1 affinity cis-inhibition assay against [14C]-D-glucose in CAL 27 cells
# CONDITION PARAMETERS: competition with 1.8 μM [14C]-D-glucose, 5 min, room temperature, 0.1–1800 μM
pIC50: −log10 of the molar value.
ASSAY READOUT: pIC50

Name the recorded pIC50 of the molecule listed here: OC[C@H]1OC(O)[C@H](O)[C@@H](O)[C@@H]1O (stereo partly drawn) [D-glucose, reference compound]
< 3.00

# credit: paper PMC9434784
